Origin of measurements: patent US20230190875A1

Biological target: T1, ActRIIB homodimer Fc fusion (UniProt Q13705 20-134)
T1 construct: Comparator; also called homodimeric ActRIIB Fc fusion; homomeric ActRIIB-Fc; not shown: linker and Fc domain of the homodimer are not described
T1 sequence (looked up): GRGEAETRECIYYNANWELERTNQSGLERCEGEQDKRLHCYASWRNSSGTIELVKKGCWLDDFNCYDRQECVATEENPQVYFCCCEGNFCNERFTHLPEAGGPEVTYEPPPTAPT
Assay: SPR (Biacore); Fc fusion captured by anti-Fc antibody, ligand injected
# Kd per record follows

binder: GDF11 (ligand, UniProt O95390 299-407, looked up, also called BMP11) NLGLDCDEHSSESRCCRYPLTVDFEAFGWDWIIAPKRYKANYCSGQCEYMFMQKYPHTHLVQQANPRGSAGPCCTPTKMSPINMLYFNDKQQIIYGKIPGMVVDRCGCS
Kd (nM): 0.002
--
binder: GDF3 (ligand, UniProt Q9NR23 251-364, looked up, also called VGR2) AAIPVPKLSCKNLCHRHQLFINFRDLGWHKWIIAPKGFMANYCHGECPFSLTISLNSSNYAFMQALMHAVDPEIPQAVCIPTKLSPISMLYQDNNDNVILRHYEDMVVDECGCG
Kd (nM): 1.5
--
binder: BMP10 (ligand, UniProt O95393 317-424, looked up) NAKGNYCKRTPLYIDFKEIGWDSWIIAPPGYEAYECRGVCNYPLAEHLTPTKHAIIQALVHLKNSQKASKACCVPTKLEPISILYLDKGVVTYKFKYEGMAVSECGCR
Kd (nM): 0.011
--
binder: BMP9 (ligand, UniProt Q9UK05 320-429, looked up, also called GDF2) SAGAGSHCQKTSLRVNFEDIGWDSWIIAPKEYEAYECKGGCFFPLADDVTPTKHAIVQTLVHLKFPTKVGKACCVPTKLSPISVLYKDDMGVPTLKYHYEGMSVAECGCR
Kd (nM): 0.078
